Target: CYP 2C9 (Homo sapiens, UniProt P11712)
Sequence (P11712 whole entry): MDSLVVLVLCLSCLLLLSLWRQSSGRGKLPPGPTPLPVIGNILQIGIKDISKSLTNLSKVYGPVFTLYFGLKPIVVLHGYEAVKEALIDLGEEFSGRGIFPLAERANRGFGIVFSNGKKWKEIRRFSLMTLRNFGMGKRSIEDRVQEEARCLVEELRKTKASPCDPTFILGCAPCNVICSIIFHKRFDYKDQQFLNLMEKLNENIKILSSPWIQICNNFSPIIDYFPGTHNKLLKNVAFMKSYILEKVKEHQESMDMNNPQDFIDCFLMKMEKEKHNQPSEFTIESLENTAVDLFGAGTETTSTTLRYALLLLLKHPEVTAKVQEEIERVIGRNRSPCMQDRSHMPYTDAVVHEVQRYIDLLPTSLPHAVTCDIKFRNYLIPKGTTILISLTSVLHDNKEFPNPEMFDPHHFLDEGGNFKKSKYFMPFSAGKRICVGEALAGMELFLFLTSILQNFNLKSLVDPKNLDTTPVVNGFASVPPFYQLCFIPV
Assay: Cytochrome P450 inhibition assay, 2C9
Format: in vitro ADME
Endpoint Name: CYP inhibition 2C9 (% inh)

For orientation, consider the following solved cases.
>  <Item Smiles>
Fc1ccc2[nH]c(CNc3nc(N4CCOCC4)nc4c3ncn4-c3cscn3)nc2c1F

>  <Endpoint Name>
CYP inhibition 2C9

>  <Result Value>
89

$$$$
>  <Item Smiles>
Cn1cc(-n2cnc3c(NCc4nc5c(F)c(F)ccc5[nH]4)nc(N4CCOCC4)nc32)cn1

>  <Endpoint Name>
CYP inhibition 2C9

>  <Result Value>
23

$$$$

[I] Cn1cc(-n2cnc3c(NCc4nc5cc(Cl)c(Cl)cc5[nH]4)nc(N4CCOC[C@@H]4CO)nc32)cn1
[II] Cn1cc(-n2cnc3c(NCc4nc5cc(F)c(F)cc5[nH]4)nc(N4CCOCC4)nc32)cn1
Q: Looking at I and II , which one comes out lower in CYP inhibition 2C9 terms? Kindly give the label for the entry you pick.
Ans: II
(II: 23 % inh, I: 69 % inh)

[A] Cc1cc(-n2cnc3c(NCc4nc5c(F)c(F)ccc5[nH]4)nc(N4CCOCC4)nc32)no1
[B] Cn1cc(-n2cnc3c(NCc4nc5cc(Cl)c(Cl)cc5[nH]4)nc(N4CCOC[C@H]4CO)nc32)cn1
Q: Looking at A and B , which one comes out lower in CYP inhibition 2C9 terms? Kindly give the label for the entry you pick.
Ans: A

###

Test: Mouse PK
Format: in vivo
Conditions: in vivo, IP 30 mg/kg, 10/10/80 DMSO/Tween-80/water
Endpoint Name: half-life (h)
Provide the reading as a plain figure in h.

Q: Returns the measured half-life for the input molecule. Input: Cn1cc(-n2cnc3c(NCc4nc5c(F)c(F)ccc5[nH]4)nc(N4CCOCC4)nc32)cn1 [Compound 1]
Ans: 2.98

###

pIC50: −log10 of the molar value.
Quick record of pIC50 values for CK1ε (Homo sapiens, UniProt P49674).
Endpoint Name: pIC50

[I] Fc1ccc2[nH]c(CNc3nc(N4CCOCC4)nc4c3ncn4-c3nccs3)nc2c1F [Compound 9]
[II] Cn1cc(-n2cnc3c(NCc4nc5c(F)c(F)ccc5[nH]4)nc(N4CCOCC4)nc32)cn1 [Compound 1]
Q: Looking at I and II , which one comes out lower in pIC50 terms? Kindly give the label for the entry you pick.
Ans: II

###

Target: CYP 1A2 (Homo sapiens, UniProt P05177)
Sequence (P05177 whole entry): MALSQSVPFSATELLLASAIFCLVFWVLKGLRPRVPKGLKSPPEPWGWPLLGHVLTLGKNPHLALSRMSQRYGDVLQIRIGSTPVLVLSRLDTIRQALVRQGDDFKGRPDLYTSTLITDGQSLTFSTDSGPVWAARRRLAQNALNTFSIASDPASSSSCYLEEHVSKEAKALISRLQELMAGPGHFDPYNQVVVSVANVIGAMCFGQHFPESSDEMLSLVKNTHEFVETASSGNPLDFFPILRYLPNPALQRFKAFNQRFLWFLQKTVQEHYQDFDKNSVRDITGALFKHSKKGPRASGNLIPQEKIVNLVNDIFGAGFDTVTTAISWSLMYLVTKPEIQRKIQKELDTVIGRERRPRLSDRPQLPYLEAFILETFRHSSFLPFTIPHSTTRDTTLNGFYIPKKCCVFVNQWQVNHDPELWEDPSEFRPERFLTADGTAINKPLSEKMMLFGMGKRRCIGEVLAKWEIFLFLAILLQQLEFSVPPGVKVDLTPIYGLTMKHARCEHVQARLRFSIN
Assay: Cytochrome P450 inhibition assay, 1A2
Type: in vitro ADME
Endpoint Name: CYP inhibition 1A2 (% inh)

>  <Molecule>
Cc1cc(-n2cnc3c(NCc4nc5c(F)c(F)ccc5[nH]4)nc(N4CCOCC4)nc32)no1 [Compound 3]

>  <Subject Of Test>
CYP 1A2 (Homo sapiens, UniProt P05177)

>  <Endpoint Name>
CYP inhibition 1A2

>  <Result Value>
5

$$$$

[a] Cn1cc(-n2cnc3c(NCc4nc5c(F)c(F)ccc5[nH]4)nc(N4CCOCC4)nc32)cn1 [Compound 1]
[b] Fc1ccc2[nH]c(CNc3nc(N4CCOCC4)nc4c3ncn4-c3cscn3)nc2c1F [Compound 4]
Q: Looking at a and b , which one comes out lower in CYP inhibition 1A2 terms? Kindly give the label for the entry you pick.
Ans: a

###

Assay: Mouse PK
Type: in vivo
Details: PO 20 mg/kg, 20 mg/kg, read-out: Cmax
Endpoint Name: Cmax (nM)
Provide the reading as a plain figure in nM.

Q: Returns the measured Cmax for the input compound. Input: Cn1cc(-n2cnc3c(NCc4nc5cc(Cl)c(Cl)cc5[nH]4)nc(N4CCOCC4)nc32)cn1
Ans: 2610

###

Assay: Microsome stability, human liver microsomes
Format: in vitro ADME
Details: read-out: Microsome stability t1/2 (H)
Endpoint Name: half-life (min)

For orientation, consider the following solved cases.
>  <Item Smiles>
Fc1ccc2[nH]c(CNc3nc(N4CCOCC4)nc4c3ncn4-c3cscn3)nc2c1F

>  <half-life [min]>
16

$$$$
>  <Item Smiles>
Cn1cc(-n2cnc3c(NCc4nc5c(F)c(F)ccc5[nH]4)nc(N4CCOCC4)nc32)cn1

>  <half-life [min]>
22

$$$$
>  <Item Smiles>
Cn1cc(-n2cnc3c(NCc4nc5cc(Cl)c(Cl)cc5[nH]4)nc(N4CCOC[C@H]4CO)nc32)cn1

>  <half-life [min]>
27

$$$$
>  <Item Smiles>
Cn1cc(-n2cnc3c(NCc4nc5cc(Cl)c(Cl)cc5[nH]4)nc(N4CCOCC4)nc32)cn1

>  <half-life [min]>
19

$$$$

[1] Cn1cc(-n2cnc3c(NCc4nc5cc(F)c(F)cc5[nH]4)nc(N4CCOCC4)nc32)cn1
[2] Cc1cc(-n2cnc3c(NCc4nc5c(F)c(F)ccc5[nH]4)nc(N4CCOCC4)nc32)no1
[3] Cn1cc(-n2cnc3c(NCc4nc5cc(Cl)c(Cl)cc5[nH]4)nc(N4CCOC[C@@H]4CO)nc32)cn1
Q: Ordering criterion: half-life; begin with the maximum. // rank by listing labels in the order requested
Ans: 1, 3, 2

###

Molecular target: UniProt:P08684
Sequence (P08684 whole entry): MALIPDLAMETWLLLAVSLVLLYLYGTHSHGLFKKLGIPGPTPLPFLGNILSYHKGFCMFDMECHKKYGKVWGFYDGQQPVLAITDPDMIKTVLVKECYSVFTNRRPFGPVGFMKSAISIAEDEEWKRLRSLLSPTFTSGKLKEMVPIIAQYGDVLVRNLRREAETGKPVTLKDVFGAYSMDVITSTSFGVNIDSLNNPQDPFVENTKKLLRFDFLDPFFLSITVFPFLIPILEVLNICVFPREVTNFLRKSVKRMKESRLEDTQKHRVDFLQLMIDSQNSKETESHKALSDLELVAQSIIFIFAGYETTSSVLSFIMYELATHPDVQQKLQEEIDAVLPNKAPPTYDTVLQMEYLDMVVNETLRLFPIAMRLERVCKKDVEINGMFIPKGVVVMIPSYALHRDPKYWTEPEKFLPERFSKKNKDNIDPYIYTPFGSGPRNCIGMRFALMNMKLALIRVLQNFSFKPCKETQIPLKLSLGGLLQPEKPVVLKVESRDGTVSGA
Experiment: Cytochrome P450 inhibition assay, 3A4
Format: in vitro ADME
Endpoint Name: CYP inhibition 3A4 (% inh)

>  <Compound>
Cc1cc(-n2cnc3c(NCc4nc5c(F)c(F)ccc5[nH]4)nc(N4CCOCC4)nc32)no1 [Compound 3]

>  <CYP inhibition 3A4 / % inh>
55

$$$$
>  <Compound>
Cn1cc(-n2cnc3c(NCc4nc5cc(Cl)c(Cl)cc5[nH]4)nc(N4CCOCC4)nc32)cn1 [Compound 5]

>  <CYP inhibition 3A4 / % inh>
89

$$$$
>  <Compound>
Cn1cc(-n2cnc3c(NCc4nc5cc(Cl)c(Cl)cc5[nH]4)nc(N4CCOC[C@@H]4CO)nc32)cn1 [Compound 6]

>  <CYP inhibition 3A4 / % inh>
77

$$$$
>  <Compound>
Cn1cc(-n2cnc3c(NCc4nc5cc(F)c(F)cc5[nH]4)nc(N4CCOCC4)nc32)cn1 [Compound 2]

>  <CYP inhibition 3A4 / % inh>
55

$$$$
>  <Compound>
Cn1cc(-n2cnc3c(NCc4nc5c(F)c(F)ccc5[nH]4)nc(N4CCOCC4)nc32)cn1 [Compound 1]

>  <CYP inhibition 3A4 / % inh>
56

$$$$

[I] Cn1cc(-n2cnc3c(NCc4nc5cc(Cl)c(Cl)cc5[nH]4)nc(N4CCOC[C@H]4CO)nc32)cn1 [Compound 7]
[II] Fc1ccc2[nH]c(CNc3nc(N4CCOCC4)nc4c3ncn4-c3cscn3)nc2c1F [Compound 4]
Q: Which value of CYP inhibition 3A4 is numerically greater: that of I or that of II ? Kindly give the label for the entry you pick.
Ans: II

###

Test: Mouse PK
Format: in vivo
Details: in vivo, IP 30 mg/kg, read-out: AUCINF_dos (converted)
Endpoint Name: AUC (ng·h/mL)
Provide the reading as a plain figure in ng·h/mL.

Q: Returns the measured AUC for the input compound. Input: Cn1cc(-n2cnc3c(NCc4nc5c(F)c(F)ccc5[nH]4)nc(N4CCOCC4)nc32)cn1 [Compound 1]
Ans: 25500

###

Assay: Mouse PK
Type: in vivo
Settings: in vivo, IP 30 mg/kg, read-out: Tmax
Endpoint Name: Tmax (h)
Provide the reading as a plain figure in h.

Q: Returns the measured Tmax for the input compound. Input: Cn1cc(-n2cnc3c(NCc4nc5c(F)c(F)ccc5[nH]4)nc(N4CCOCC4)nc32)cn1
Ans: 1

###

Target: CYP 2D6 (Homo sapiens, UniProt P10635)
Sequence (P10635 whole entry): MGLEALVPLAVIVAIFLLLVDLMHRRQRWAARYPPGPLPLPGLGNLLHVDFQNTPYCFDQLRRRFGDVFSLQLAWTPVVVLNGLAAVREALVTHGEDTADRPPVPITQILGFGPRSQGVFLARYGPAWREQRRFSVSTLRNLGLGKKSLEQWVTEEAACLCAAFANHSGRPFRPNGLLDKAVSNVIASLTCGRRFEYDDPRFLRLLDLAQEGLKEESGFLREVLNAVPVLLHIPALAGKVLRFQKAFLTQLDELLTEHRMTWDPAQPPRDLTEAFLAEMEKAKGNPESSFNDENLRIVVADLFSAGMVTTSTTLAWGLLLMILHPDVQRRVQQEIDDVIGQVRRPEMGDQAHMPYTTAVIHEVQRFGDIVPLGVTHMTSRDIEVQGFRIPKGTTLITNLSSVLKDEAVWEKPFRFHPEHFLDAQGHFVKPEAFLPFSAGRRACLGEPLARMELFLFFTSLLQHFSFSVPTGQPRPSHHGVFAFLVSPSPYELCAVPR
Experiment: Cytochrome P450 inhibition assay, 2D6
Assay type: in vitro ADME
Endpoint Name: CYP inhibition 2D6 (% inh)

For orientation, consider the following solved cases.
>  <Item Smiles>
Cn1cc(-n2cnc3c(NCc4nc5c(F)c(F)ccc5[nH]4)nc(N4CCOCC4)nc32)cn1

>  <Scale Unit>
% inh

>  <Result Value>
−3

$$$$
>  <Item Smiles>
Cn1cc(-n2cnc3c(NCc4nc5cc(F)c(F)cc5[nH]4)nc(N4CCOCC4)nc32)cn1

>  <Scale Unit>
% inh

>  <Result Value>
2

$$$$
>  <Item Smiles>
Cn1cc(-n2cnc3c(NCc4nc5cc(Cl)c(Cl)cc5[nH]4)nc(N4CCOC[C@H]4CO)nc32)cn1

>  <Scale Unit>
% inh

>  <Result Value>
29

$$$$
>  <Item Smiles>
Cn1cc(-n2cnc3c(NCc4nc5cc(Cl)c(Cl)cc5[nH]4)nc(N4CCOC[C@@H]4CO)nc32)cn1

>  <Scale Unit>
% inh

>  <Result Value>
42

$$$$

[I] Fc1ccc2[nH]c(CNc3nc(N4CCOCC4)nc4c3ncn4-c3cscn3)nc2c1F
[II] Cc1cc(-n2cnc3c(NCc4nc5c(F)c(F)ccc5[nH]4)nc(N4CCOCC4)nc32)no1
Q: Looking at I and II , which one comes out lower in CYP inhibition 2D6 terms? Kindly give the label for the entry you pick.
Ans: II
(II: 2 % inh, I: 57 % inh)
